Exercise: state measured EC50 for each of the compounds provided.
Target: Streptokinase A (Streptococcus pyogenes serotype M1)
Sequence (P10520 whole entry): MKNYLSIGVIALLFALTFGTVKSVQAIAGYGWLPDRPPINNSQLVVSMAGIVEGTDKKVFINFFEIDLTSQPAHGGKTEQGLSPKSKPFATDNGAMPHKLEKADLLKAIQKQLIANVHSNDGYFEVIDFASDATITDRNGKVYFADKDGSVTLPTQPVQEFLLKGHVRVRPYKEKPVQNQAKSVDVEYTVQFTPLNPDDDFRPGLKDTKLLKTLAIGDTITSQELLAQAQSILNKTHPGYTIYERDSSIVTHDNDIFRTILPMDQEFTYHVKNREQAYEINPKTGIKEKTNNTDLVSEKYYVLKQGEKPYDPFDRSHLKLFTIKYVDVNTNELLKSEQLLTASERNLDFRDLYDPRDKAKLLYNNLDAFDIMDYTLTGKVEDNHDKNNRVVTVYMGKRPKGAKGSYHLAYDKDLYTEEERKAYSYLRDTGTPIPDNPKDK
Experiment: S. pyogenes streptokinase expression inhibitors, potency, dose response, plasminogen activation absorbance, OD405 (AID 1914);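 also: secreted streptokinase activity via plasminogen activation per viability signal from cell pellet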
Format: functional, Streptococcus pyogenes M1 GAS
The source made the active and inactive calls.

Q: Observed EC50 on Streptokinase A (Streptococcus pyogenes serotype M1) for O=C(CSc1nnc(NC(=O)C2CC(=O)N(c3ccc(F)cc3)C2)s1)NCc1ccco1 (stereo not given) , please.
Result: > 150 µM (not active)

Q: Try this compound too: COc1ccc(-c2nc(-c3cccs3)c(-c3cccs3)[nH]2)cc1OC
Result: 1.41 µM (active)

Q: Try this compound too: O=[N+]([O-])c1cccc(/C=N/Nc2nc(N3CCCCC3)nc(N3CCCCC3)n2)c1
Result: 39.4 µM (active)

Q: Try this compound too: CC(C)(C)c1nc(NC(=O)Nc2ccccc2)sc1Br
Result: > 50 µM (not active)

Q: Try this compound too: Cc1ccc(/C=C/C(=O)c2ccccc(=O)c2O)cc1C
Result: > 150 µM (not active)

Q: Try this compound too: COC(=O)c1c(C)[nH]c(C(=O)OCC(=O)N(CC(C)C)c2c(N)n(Cc3ccccc3)c(=O)[nH]c2=O)c1C
Result: > 150 µM (not active)

Q: Try this compound too: CC(C)(C)N(Cc1ccccc1)C(=O)COc1cccnc1[N+](=O)[O-]
Result: > 150 µM (not active)

Q: Try this compound too: CC1CCN(c2nc(-c3ccccc3)cc(C(F)(F)F)n2)CC1
Result: 9.36 µM (inconclusive)

Q: Try this compound too: O=C(Nc1ccc(N2CCCC2)c(S(=O)(=O)Nc2cccc(C(F)(F)F)c2)c1)c1cccs1
Result: > 150 µM (not active)

Q: Try this compound too: Cc1ccc(CN(C(=O)c2ccco2)C2CCS(=O)(=O)C2)cc1 (stereo not given)
Result: > 150 µM (not active)

----------
Experiment: inhibitors of HIV Env-driven cell fusion, dose response, cherry-pick (AID 652057)
Format: functional, cell-based
Active and inactive are the calls of the source.
Attribute Measured: AC50

Q: Which AC50 reading was recorded for the molecule O=C(c1ccc(Cl)cc1)N1CCCCC(Sc2nnc(-c3ccc4c(c3)OCO4)o2)C1=O (stereo unspecified) ?
Result: 2.78 µM (active)

Q: Try this molecule too: COc1ccc(CNc2ncnc3ccccc23)cc1
Result: 36.2 µM (active)

Q: Try this molecule too: CN1C(=O)c2cc(NS(=O)(=O)c3ccccc3F)ccc2OC[C@@H]2O[C@H](CC(=O)NC3Cc4ccccc4C3)CC[C@@H]21
Result: 2.89 µM (active)

Q: Try this molecule too: CC1CCN(C(=O)c2ncn3c2C(=O)NC[C@@H]3C)CC1
Result: 3.59 µM (active)

Q: Try this molecule too: CCn1c(C)cc(C(=O)CN2C(=O)c3ccccc3S2(=O)=O)c1C
Result: 2.09 µM (active)

Q: Try this molecule too: Cc1noc(C)c1S(=O)(=O)Nc1cccc2c1O[C@H](CN(C)Cc1ccc(C(F)(F)F)cc1)[C@H](C)CN([C@H](C)CO)C2=O
Result: 0.731 µM (active)

----------
Exercise: state measured IC50 for each of the compounds provided.
Target: Epstein-Barr nuclear antigen 1 (Epstein-Barr virus (strain B95-8) (HHV-4) (Human herpesvirus 4), UniProt P03211)
Sequence (P03211 whole entry): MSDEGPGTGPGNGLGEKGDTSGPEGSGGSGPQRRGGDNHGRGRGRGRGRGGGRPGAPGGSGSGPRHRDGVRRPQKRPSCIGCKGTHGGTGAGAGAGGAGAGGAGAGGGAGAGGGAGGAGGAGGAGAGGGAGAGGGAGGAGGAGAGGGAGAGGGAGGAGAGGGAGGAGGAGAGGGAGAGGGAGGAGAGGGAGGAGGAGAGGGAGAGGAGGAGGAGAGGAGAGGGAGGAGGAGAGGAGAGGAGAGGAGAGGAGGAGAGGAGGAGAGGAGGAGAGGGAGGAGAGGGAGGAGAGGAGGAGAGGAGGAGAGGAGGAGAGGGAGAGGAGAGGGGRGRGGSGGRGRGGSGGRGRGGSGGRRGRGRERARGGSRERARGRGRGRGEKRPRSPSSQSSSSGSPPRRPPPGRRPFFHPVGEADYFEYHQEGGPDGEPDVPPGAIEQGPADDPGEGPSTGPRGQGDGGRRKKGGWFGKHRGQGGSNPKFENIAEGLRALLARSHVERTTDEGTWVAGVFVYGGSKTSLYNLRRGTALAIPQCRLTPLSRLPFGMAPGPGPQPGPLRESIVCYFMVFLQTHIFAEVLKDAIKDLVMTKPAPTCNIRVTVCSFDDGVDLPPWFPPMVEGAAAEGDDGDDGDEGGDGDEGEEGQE
Experiment: EBNA-1 inhibitors, dose response, biochemical, fluorescence polarization, 1536-well (AID 2381);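 also: fluorescence polarization of a Cy5 DNA probe bound by EBNA-1 protein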
Design: species or system human gammaherpesvirus 4
The source made the active and inactive calls.

Q: Which IC50 reading was recorded for the compound CCOc1cccc(NC(=O)Cn2nc(-c3ccc4c(c3)OCCO4)ccc2=O)c1 ?
Result: 13.7 µM (not active)

Q: Try this compound too: CC(=O)Nc1ccc(NC(=O)C(C)OC(=O)c2oc3ccccc3c2C)cc1 (centres undefined)
Result: 9.16 µM (active)

Q: Try this compound too: C/C(=N\NC(=O)c1c(Br)c(C)nn1C)c1ccc(NC(=O)c2ccoc2C)cc1
Result: 15.7 µM (not active)

Q: Try this compound too: Cc1cccc(OCC(=O)N/N=C\C=C\c2ccc3c(c2)OCO3)c1C
Result: 5.84 µM (active)
